Experiment: MTD by dose escalation in mice
Conditions: mouse, in vivo; dose escalation, groups of 3 mice, 5 days a week, weekly dose increments
attribute_measured: MTD at 3 months
The reply must contain the numeric value and, after it, the unit.

So what does the record say about MTD at 3 months for C=C(CC(O)C(=O)OCC)C(=O)OCC (stereo not shown) ? 168 mg/kg
